System: LOC_OS04G35114-cb001;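 note: purified Escherichia coli-expressed rice kinase domain construct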
Assay: thermal shift delta Tm vs DMSO control; higher = stronger stabilization (binding)
Conditions: 12.5 µM; protein concentration 2 µM
The label depends only on thermal shift delta Tm: yes if it is at least 2 °C, no if it is smaller.

Q. # bool: thermal shift delta Tm of `Cc1ccc2nc(NCCN)c3ncc(C)n3c2c1` >= 2 °C
A. no

Q. Kindly determine if thermal shift delta Tm recorded for `C=CC(=O)Nc1cccc(Oc2nc(Nc3ccc(N4CCN(C)CC4)cc3)ncc2Cl)c1` is above or exactly 2 °C.
A. yes

Q. For this compound, is measured thermal shift delta Tm 2 °C or higher? `Oc1ccc(Nc2nc(-c3ccc(Cl)cc3)cs2)cc1`
A. yes

Q. Decide: is the reported value of thermal shift delta Tm for `COc1ccc(F)c(F)c1C(=O)c1cnc(NC2CCN(S(C)(=O)=O)CC2)nc1N` equal to or greater than 2 °C?
A. no

Q. Hello, I need to know if C[C@H](Nc1ncnc2nc[nH]c12)c1cc2cccc(Cl)c2c(=O)n1-c1ccccc1 [Duvelisib (IPI-145, INK1197)] has measured thermal shift delta Tm not below 2 °C. Thanks!
A. no

Q. Is it the case that N#CCNC(=O)c1ccc(-c2ccnc(Nc3ccc(N4CCOCC4)cc3)n2)cc1 [Momelotinib (CYT387)] has thermal shift delta Tm reaching or exceeding 2 °C?
A. yes

Q. Does thermal shift delta Tm meet or surpass 2 °C for `Nc1nc(N)c2nc(-c3cccc(O)c3)c(-c3cccc(O)c3)nc2n1` ?
A. no

Q. Check the entry CC(C)CCN1c2nc(Nc3cc(F)c(O)c(F)c3)ncc2N(C)C(=O)C1C (centres undefined) : does thermal shift delta Tm equal or exceed 2 °C?
A. yes

Q. API: above_or_equal(metric=thermal shift delta Tm, cutoff=2 °C) for item `O=C(Nc1c[nH]nc1-c1nc2ccc(CN3CCOCC3)cc2[nH]1)NC1CC1`
A. yes
